Sourced from patent US20100234435A1

System name: S1P2 (Homo sapiens)
Sequence (O95136 whole entry): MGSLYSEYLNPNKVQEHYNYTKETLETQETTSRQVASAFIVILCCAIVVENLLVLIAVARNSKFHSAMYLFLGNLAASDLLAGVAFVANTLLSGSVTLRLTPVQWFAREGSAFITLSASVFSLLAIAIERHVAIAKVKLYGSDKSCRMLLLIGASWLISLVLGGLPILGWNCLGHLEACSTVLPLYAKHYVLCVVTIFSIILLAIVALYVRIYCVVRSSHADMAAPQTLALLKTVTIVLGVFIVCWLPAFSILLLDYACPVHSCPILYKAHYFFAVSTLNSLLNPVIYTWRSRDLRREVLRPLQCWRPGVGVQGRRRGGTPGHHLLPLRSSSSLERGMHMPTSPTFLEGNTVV
pIC50: −log10 of the molar value. Where a name gives a salt, the structure may show the parent alone.
// pIC50 lookup, one value per entry
Result type: pIC50

CC(C)Cc1ccc(-c2nc(-c3ccc([C@@H](C)N[C@H]4C[C@H](C(=O)O)C4)cc3)no2)cc1 : < 6.00
CC(C)Cc1ccc(-c2nc(-c3ccc([C@H](C)N[C@H]4C[C@@H](C(=O)O)C4)cc3)no2)cc1 [hydrochloride salt] : < 6.00

###

Structures can show the parent of a compound that is named as a salt.
Below are IC50 values measured for S1P5 (Homo sapiens, UniProt Q9H228).
Result type: IC50 (nM)

CC(C)Cc1ccc(-c2nc(-c3ccc([C@@H](C)N[C@H]4C[C@H](C(=O)O)C4)cc3)no2)cc1 : 15
CC(C)Cc1ccc(-c2nc(-c3ccc([C@H](C)N[C@H]4C[C@@H](C(=O)O)C4)cc3)no2)cc1 [hydrochloride salt] : 11
